- STUDY_SYSTEM: TGF-beta1 (Homo sapiens, UniProt P01137 P01137:279-390)
- Sequence (P01137 279-390, one chain of several): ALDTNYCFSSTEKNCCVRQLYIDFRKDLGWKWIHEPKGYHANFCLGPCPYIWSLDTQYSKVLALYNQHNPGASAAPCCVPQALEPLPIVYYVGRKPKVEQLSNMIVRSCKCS
- METHOD_DESCRIPTION: cell_activity; second value 298 nM
- CONDITION_NOTES: tags: Genentech; chain copies: 2
pIC50: −log10 of the molar value.
EXPERIMENTAL_READOUT: pIC50

BINDER	REPORTED_MEASUREMENT
lib2-6-1-81 (ssRNA, 2'-NH2 U, 2'-F C) RNA: GGGGGAGAACGCGGAUCCUGUCUCCACCGCCGAUACUGGGGUUCCUGGGGCCCCUCCAUGCAGGAGGGGGGUGGUUCGGAG	6.70
